Measurement record for PI3K alpha (Homo sapiens, UniProt P42336); quantity recorded: pIC50.
pIC50: −log10 of the molar value.
Property label: pIC50

Molecule | Result
CC(C)(Cc1ccccc1C1CCN(S(C)(=O)=O)CC1)Nc1nc(N2CCOCC2)nc(-n2c(C(F)F)nc3ccccc32)n1 | 6.30 to 6.70
CC(C)(Cc1ccc2ccccc2c1)Nc1nc(N2CCOCC2)nc(-n2c(C(F)F)nc3ccccc32)n1 | 6.30 to 6.70
FC(F)c1nc2ccccc2n1-c1nc(NCc2ccccc2)nc(N2CCOCC2)n1 [Ref 1, reference compound] | 6.70 to 7.00
CC(=O)N1CCC(c2ccccc2CC(C)(C)Nc2nc(N3CCOCC3)nc(-n3c(C(F)F)nc4ccccc43)n2)CC1 | 6.70 to 7.00
Cc1cccc(CC(C)(C)Nc2nc(N3CCOCC3)nc(-n3c(C(F)F)nc4ccccc43)n2)c1 | < 6.30
CC(C)(Cc1ccccc1-c1cccnc1F)Nc1nc(N2CCOCC2)nc(-n2c(C(F)F)nc3ccccc32)n1 | < 6.30
CC(C)(Cc1ccccc1-c1ccccc1F)Nc1nc(N2CCOCC2)nc(-n2c(C(F)F)nc3ccccc32)n1 | < 6.30
CCN1CCC(c2ccccc2CC(C)(C)Nc2nc(N3CCOCC3)nc(-n3c(C(F)F)nc4ccccc43)n2)CC1 | < 6.30
CC(C)(Nc1nc(N2CCOCC2)nc(-n2c(C(F)F)nc3ccccc32)n1)c1ccc2ccccc2c1 | < 6.30
CC(C)(Cc1ccccc1Cl)Nc1nc(N2CCOCC2)nc(-n2c(C(F)F)nc3ccccc32)n1 | < 6.30
CC(C)(Cc1ccc(Br)cc1)Nc1nc(N2CCOCC2)nc(-n2c(C(F)F)nc3ccccc32)n1 | < 6.30
CC(C)(Cc1ccccc1-c1cncnc1)Nc1nc(N2CCOCC2)nc(-n2c(C(F)F)nc3ccccc32)n1 | 6.30 to 6.70
CC(C)(CNc1nc(N2CCOCC2)nc(-n2c(C(F)F)nc3ccccc32)n1)c1ccccc1 | < 6.30
CC(C)(Cc1ccc(Cl)cc1)Nc1nc(N2CCOCC2)nc(-n2c(C(F)F)nc3ccccc32)n1 | < 6.30
CC(C)N1CCC(c2ccccc2CC(C)(C)Nc2nc(N3CCOCC3)nc(-n3c(C(F)F)nc4ccccc43)n2)CC1 | < 6.30

###

Target: PI3Kγ (Mus musculus)
Construct: endogenous in cells
Sequence (Q9JHG7 whole entry): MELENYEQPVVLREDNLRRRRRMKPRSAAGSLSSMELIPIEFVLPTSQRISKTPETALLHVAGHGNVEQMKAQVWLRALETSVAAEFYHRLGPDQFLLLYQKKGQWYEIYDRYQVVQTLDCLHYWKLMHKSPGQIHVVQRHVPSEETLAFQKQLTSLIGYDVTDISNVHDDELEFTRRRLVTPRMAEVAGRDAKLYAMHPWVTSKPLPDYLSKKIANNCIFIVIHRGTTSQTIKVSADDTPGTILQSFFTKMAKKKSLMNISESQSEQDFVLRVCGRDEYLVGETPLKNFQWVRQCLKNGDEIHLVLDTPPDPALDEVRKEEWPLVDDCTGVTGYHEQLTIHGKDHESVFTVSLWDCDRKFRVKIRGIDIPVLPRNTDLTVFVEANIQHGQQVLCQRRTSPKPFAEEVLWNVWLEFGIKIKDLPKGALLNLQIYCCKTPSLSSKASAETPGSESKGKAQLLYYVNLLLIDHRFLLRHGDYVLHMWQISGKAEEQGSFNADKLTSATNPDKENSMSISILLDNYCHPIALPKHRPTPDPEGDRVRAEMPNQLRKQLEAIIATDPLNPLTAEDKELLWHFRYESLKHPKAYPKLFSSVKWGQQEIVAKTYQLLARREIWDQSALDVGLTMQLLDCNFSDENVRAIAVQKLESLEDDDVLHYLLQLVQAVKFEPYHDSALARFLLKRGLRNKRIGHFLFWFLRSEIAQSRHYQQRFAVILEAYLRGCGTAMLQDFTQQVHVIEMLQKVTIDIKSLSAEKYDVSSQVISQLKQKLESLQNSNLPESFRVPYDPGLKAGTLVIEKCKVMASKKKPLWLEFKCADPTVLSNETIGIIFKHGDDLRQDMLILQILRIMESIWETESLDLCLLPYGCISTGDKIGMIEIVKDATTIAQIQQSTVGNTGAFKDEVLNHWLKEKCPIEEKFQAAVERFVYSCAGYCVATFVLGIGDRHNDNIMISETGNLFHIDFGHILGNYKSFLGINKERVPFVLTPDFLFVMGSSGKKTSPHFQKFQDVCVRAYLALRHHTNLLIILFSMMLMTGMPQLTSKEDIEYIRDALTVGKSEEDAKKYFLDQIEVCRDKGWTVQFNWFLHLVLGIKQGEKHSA
Test: ELISA assay for PI3Kγ: in-cell ELISA, phosphorylation of AKT (Ser473) in RAW 264.7 cells
Conditions: cellular, pAKT (Ser473), C5a stimulation, read-out: IC50 p110γ
Procedure: PI3K gamma (PI3Kγ) activity was determined by measuring the phosphorylation of AKT (Ser473) using an in-cell ELISA assay. RAW 264.7 (mouse macrophage) cells were obtained from ATCC (ATCC #TIB-71). […] RAW 264.7 cells were subcultured in growth medium and seeded into flat, clear bottom, 96-well plates (Corning #3904) at 70000 cells/well, then incubated overnight in a 37° C., 5% CO2 incubator. […] Images were quantified using Licor Odyssey application software. […]
pIC50: −log10 of the molar value.
Consider the following molecules and their measured pIC50 readings.
Property label: pIC50

Molecule | Property label | Result
CC(C)(Cc1ccc(F)cc1F)Nc1nc(N2CCOCC2)nc(-n2c(C(F)F)nc3ccccc32)n1 [Compound A51] | pIC50 | 6.70 to 7.00
CN1CCC(c2ccccc2CC(C)(C)Nc2nc(N3CCOCC3)nc(-n3c(C(F)F)nc4ccccc43)n2)CC1 [Compound A35] | pIC50 | 6.30 to 6.70
Cc1ccccc1-c1ccccc1CC(C)(C)Nc1nc(N2CCOCC2)nc(-n2c(C(F)F)nc3ccccc32)n1 [Compound A60] | pIC50 | < 6.30
CC(C)(Cc1ccccc1-c1cncnc1)Nc1nc(N2CCOCC2)nc(-n2c(C(F)F)nc3ccccc32)n1 [Compound A63] | pIC50 | < 6.30
CC(C)(Cc1ccccc1C1CCNCC1)Nc1nc(N2CCOCC2)nc(-n2c(C(F)F)nc3ccccc32)n1 [Compound A68] | pIC50 | 6.30 to 6.70
CC(C)(Cc1c(F)cccc1F)Nc1nc(N2CCOCC2)nc(-n2c(C(F)F)nc3ccccc32)n1 [Compound A52] | pIC50 | 6.70 to 7.00
Cc1ccccc1CC(C)(C)Nc1nc(N2CCOCC2)nc(-n2c(C(F)F)nc3ccccc32)n1 [Compound A18] | pIC50 | 6.30 to 6.70

The origin of these recorded values is patent US12059422B2.
